Target: Hexose transporter 1 (Plasmodium falciparum)
Experiment: ST_JUDE_LEISH: Cytotoxicity at 2uM final concentration against transgenic Leishmania Mexicana promastigotes LmPfHT that are glucose transport deficient and complemented with the Plasmodium falciparum hexose transporter. Activity is measured by DNA content using SYBR green in vitro
Assay type: functional
Kindly supply the reported inhibition values for the records listed here.
One number for each entry, in %.

In the examples that follow, each entry is paired with its recorded inhibition.
>  <compound>
CC(C)(C)c1ccc(CNC(=O)c2cc(CNC3CCNC3)ccc2O)cc1 (stereo not given)

>  <inhibition (%)>
0.79

$$$$
>  <compound>
COc1cc(C2CCCCC2)c(OC)cc1CC1c2cc(O)c(Cl)cc2CCN1C (stereo not given)

>  <inhibition (%)>
-0.22

$$$$
>  <compound>
FC(F)(F)COc1ccc(CCNCCCCNCCc2ccc(OCC(F)(F)F)c3ccccc23)c2ccccc12

>  <inhibition (%)>
12.3

$$$$

For each listed entry, give its inhibition.
1. N#Cc1ccc2c(c1)CCN(CCC1CCC(NC(=O)c3cc4ccc(Cl)cc4[nH]3)CC1)C2 (stereo not given)
2. CCCCC([C@@H](Cc1ccc2ccccc2c1)C(=O)N[C@H](C(=O)NC)C(C)(C)C)N(O)C=O (stereo not given in full)
3. CN(C)CCCN1CCN(C(=O)c2cc3cc(-c4ccccc4)ccc3n2S(=O)(=O)c2ccccc2)CC1
4. CC(C)c1ccc(NC(=O)c2ccc(CN3CCCN(Cc4cccc(Cl)c4)CC3)cc2)cc1
5. O=C(NCCN1CCCCC1)c1ccc(CNC(=O)c2ccc(O)c(-c3ccc(Cl)c(Cl)c3)c2)cc1

Result:
[-0.22, -0.31, 24.3, 1.46, 0.04]

For each listed entry, give its inhibition.
1. Cc1ccc(-c2noc(COc3ccccc3C(=O)NC3CCCC3)n2)cc1
2. COc1ccc2nccc([C@@H](O)CN3CCC(NCc4ccc5c(c4)NC(=O)CS5)CC3)c2n1
3. COc1ccc2nccc([C@@H](O)CN3CCC(NC(=O)c4ccc(Cl)c([N+](=O)[O-])c4)CC3)c2c1

Result:
[6.24, 2.86, 8.44]

----------
Biological target: Glucose transporter (Leishmania mexicana)
Assay: ST_JUDE_LEISH: Cytotoxicity at 2uM final concentration against transgenic Leishmania Mexicana promastigotes LmGT2 that are glucose transport deficient and complemented with the L. Mexicana glucose transporter 2. Activity is measured by DNA content using SYBR green in vitro
Format: functional
Kindly supply the reported inhibition values for the records listed here.
One number for each entry, in %.

>  <compound>
CCc1ccccc1NC(=O)CN1CCN(c2ncnc3scc(-c4ccc(F)cc4)c23)CC1

>  <target or system>
Glucose transporter (Leishmania mexicana)

>  <display unit>
%

>  <inhibition>
2.87

$$$$
>  <compound>
N#Cc1ccc2c(c1)CCN(CCC1CCC(NC(=O)c3cc4cccc([N+](=O)[O-])c4[nH]3)CC1)C2 (centres undefined)

>  <target or system>
Glucose transporter (Leishmania mexicana)

>  <display unit>
%

>  <inhibition>
9.97

$$$$
>  <compound>
O=C(O)CCSSc1cccc[n+]1[O-]

>  <target or system>
Glucose transporter (Leishmania mexicana)

>  <display unit>
%

>  <inhibition>
3.25

$$$$

For each listed entry, give its inhibition.
1. O=C(Nc1ccccc1)c1ccc(-c2cc3ccncc3cc2OC2CCNCC2)s1
2. Cc1ccc2nc(-c3ccc(/C=C/C(=O)NC4CCN(Cc5ccccc5)CC4)cc3)[nH]c2c1C

Result:
1: -3.49; 2: 9.58

For each listed entry, give its inhibition.
1. O=C(/C=C/c1ccc(Cl)cc1)NCCCCCN1CCCC(C(=O)Nc2ccc(Cl)c(Cl)c2)C1 (centres undefined)
2. COc1cc(NCC(O)CNc2cc(OC)c3ccccc3n2)nc2ccccc12
3. Cc1ccc2c(c1)c(C1CCN(C(=O)c3ccc([N+](=O)[O-])o3)CC1)cn2C
4. Cc1cnn(-c2cccc(C(=O)NC3CCC(CCN4CCc5ccc(C#N)cc5CC4)CC3)c2)c1 (centres undefined)
5. FC(F)(F)c1ccc2[nH]ccc(=NN=Cc3ccccc3)c2c1
6. COc1ccc(-c2cncc(-c3ccc(OC)c(OC)c3)n2)cc1OC

Result:
1: 1.59; 2: 4.93; 3: 4.16; 4: -0.22; 5: 0.98; 6: 3.88

For each listed entry, give its inhibition.
1. CC(C)c1ccc(NC(=O)c2ccc(NCCCN(C)Cc3ccccc3)c([N+](=O)[O-])c2)cc1
2. O=C(Nc1ccccc1Oc1ccccc1)NC1CCN(c2ccnc3cc(Cl)ccc23)C1 (centres undefined)

Result:
1: -0.53; 2: 3.25

For each listed entry, give its inhibition.
1. Cc1ccnc2nc(C(=O)Nc3cc(Cl)ccc3N3CCOCC3)nn12
2. C[C@@H](N/C(=N\c1ccccc1Cl)Nc1ccc(C#N)cc1O)c1ccc(Br)cc1
3. Cc1nc2ccccc2n1C1CC2CCC(C1)N2CCC1(c2ccccc2)CCN(C(=O)Nc2ccc(C(F)(F)F)cc2)CC1 (centres undefined)
4. Cc1cccc2nc(-c3cccc(-c4ccc(NC(=O)CN5CCOCC5)cc4)c3)[nH]c12
5. COC(=O)c1cccc(CNCc2ccc(-c3ccc(-c4nc5ccccc5[nH]4)s3)cc2)c1
6. COc1ccc(C2CCN(CCCCNC(=O)c3ccc(NC(=O)c4ccc(Cl)cc4)cc3)CC2)c(OC)c1

Result:
1: 5.36; 2: 3.66; 3: 1.78; 4: 2.97; 5: 9.28; 6: 3.22

For each listed entry, give its inhibition.
1. Cc1cc(C)n(-c2nc(Nc3cccc(C(F)(F)F)c3)nc(-n3nc(C)cc3C)n2)n1
2. O=C(Nc1cccc(CN2CCN(C(=O)c3cccc(Cl)c3)CC2)c1)c1ccco1
3. CC(C)NCc1ccc(-c2ccc(NC(=O)c3ccc(Cl)cc3)cc2)cc1

Result:
-1.11
3.82
16.1

For each listed entry, give its inhibition.
1. CCSc1ccccc1CON1C(=N)N=C(N)NC1(C)C
2. O=C(Nc1ccc2c(c1)CCN2C1CCN(Cc2cccc(F)c2F)C1)c1ccco1 (centres undefined)

Result:
1: 18.7; 2: 2.93
